TARGET SYSTEM: T1, 4H930-AA
T1 chain: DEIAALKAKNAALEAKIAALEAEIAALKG
ASSAY NOTES: two-hybrid library CCmax;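 also: natural log of median RNA to DNA barcode read ratio; higher means stronger binding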
REPORTED CONDITIONS: mean of both orientations
RESULT TYPE: interaction score

{"BINDER": "DKNAALKAENAALEAKIAALKAEIAALEG [4H3753-AA]", "interaction score": -1.43}
{"BINDER": "DKNAALEAEIAALKAENAALKAKIAALEG [4H3165-AA]", "interaction score": -1.79}
{"BINDER": "DKNAALKAKIAALEAENAALKAEIAALEG [4H3865-AA]", "interaction score": -1.43}
{"BINDER": "DKIAALKAKNAALKAEIAALEAKNAALKG [4H3016-AA]", "interaction score": -1.32}
{"BINDER": "DEIAALKAEIAALEAKNAALKAEIAALKG [4H570-AA]", "interaction score": -1.1}
{"BINDER": "DKNAALEAKIAALKAENAALEAEIAALKG [4H3410-AA]", "interaction score": -1.36}
{"BINDER": "DEIAALEAENAALEAKIAALKAENAALEG [4H171-AA]", "interaction score": -1.29}

Where do these numbers come from? They come from paper PMC10397247.
